Origin of values: PubChem BioAssay AID1159580

Experiment: chemical genetic growth profiling, strain panel (AID 1159580);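 also: tested at 20 µM; growth read once vehicle control cultures reached saturation at 30 °C; 1 = growth at the plate median or of vehicle wells; lower values mean less growth of the strain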
Conditions: S. cerevisiae deletion strains, growth OD, locus YPL256C, strain CLN2, stronger effect = lower value
Out of some 5,500 compounds screened, about 2,000 (36%) were called active. Not shown: some 18% with an inconclusive outcome. The list shows a part of the results.
property measured: normalized growth
Just the number, please.

Consider the worked cases shown below.
* Cn1nccc1-c1cc(Cl)cc(Cl)c1O | 0.718
* Cc1noc(C)c1S(=O)(=O)Nc1csc(C(F)(F)F)c1-c1ccccc1 | 1.01
* O=S(=O)(NCc1cc(Cl)cc(Cl)c1)c1cc(C(F)(F)F)cc(C(F)(F)F)c1 | 0.87

Query block: Reported normalized growth, compound O=C(O)CCCCCCCC(=O)O : ____
Result block: 0.988

Query block: Reported normalized growth, compound O=S(=O)(Nc1csc(C(F)(F)F)c1-c1ccccc1)c1cc(Br)c(Br)s1 : ____
Result block: 0.712

Query block: Reported normalized growth, compound NCCCCCC(=O)O : ____
Result block: 1.04
